Hey, just so you know, these numbers are from ChEMBL document CHEMBL1201862.

Tested on: SR
Test: NCI tumour cell line growth inhibition, 48 h
Active and inactive are the calls of the source. Cut-off read from the data, not from the text of the source: active = GI50 up to about 1.1 µM and inactive = higher.
So I've got a bunch of compounds here, and I need their GI50 values.

Exercise: What value of measured GI50 is listed for `Cc1ccc2nc3c(Cl)cc(=O)cc-3sc2c1` ?
Solution: > 10 µM (inactive)

Exercise: What value of measured GI50 is listed for `CC1(C)CCC2=C(O1)/C(=N\Nc1ccc(S(N)(=O)=O)cc1)c1ccccc1C2=O` ?
Solution: 5.61 µM (inactive)

Exercise: What value of measured GI50 is listed for COC(=O)C(=O)C(C(=O)C(=O)Nc1ccccc1OC)c1nc2ccc([N+](=O)[O-])cc2nc1O (stereo not given) ?
Solution: > 100 µM (inactive)

Exercise: What value of measured GI50 is listed for `Cc1ccc(-c2cc(=O)c3cc(C)c(C)c(C(=O)O)c3o2)cc1C` ?
Solution: > 100 µM (inactive)

Exercise: What value of measured GI50 is listed for CC(C)CCC1(O)O[C@H]2C[C@H]3[C@@H]4CCC5CC(=O)C=C[C@]5(C)[C@H]4CC[C@]3(C)[C@H]2[C@@H]1C (stereo not given in full) ?
Solution: 8.36 µM (inactive)

Exercise: What value of measured GI50 is listed for `Cn1c2ccccc2n2c3ccccc3c(=S)c(C#N)c12` ?
Solution: > 100 µM (inactive)

Exercise: What value of measured GI50 is listed for `CCOC(=O)/C(=C\NC(=S)Nc1ccc(OCC)cc1)C(=O)c1ccccc1` ?
Solution: > 100 µM (inactive)

Exercise: What value of measured GI50 is listed for `CCc1c(CN)c(CC)c(CNC2=NCCN2)c(CC)c1CNC1=NCCN1` ?
Solution: > 100 µM (inactive)

Exercise: What value of measured GI50 is listed for CC(=O)N1N=C(c2c(O)ccc3ccccc23)CC1c1ccc(Cl)cc1 (stereo not given) ?
Solution: 6.35 µM (inactive)

Exercise: What value of measured GI50 is listed for `Cc1cc(C)nc(NS(=O)(=O)c2ccc(Nc3c4ccccc4nc4c(C(=O)NC(CO)(CO)CO)cccc34)cc2)n1` ?
Solution: 23.2 µM (inactive)

====

Test system: Malme-3M
Assay: NCI tumour cell line growth inhibition, 48 h
Structures can show the parent of a compound that is named as a salt. Active and inactive are the calls of the source. No stated cut-off is given here; in the data, active = GI50 up to about 1.1 µM and inactive = higher.
Please reply with one of these outcomes: y for active, n for inactive

Exercise: Hi team, can someone confirm the assay call for CC(=O)NNC(=O)C1CCCCN1 (configuration not stated) ?
Solution: n

Exercise: Hi team, can someone confirm the assay call for NCCN1C(=O)c2ccccc2C1(O)c1ccc(Cl)cc1 (configuration not stated) ?
Solution: n

Exercise: Hi team, can someone confirm the assay call for `COc1ccc(CNc2cnc3ccc(N)cc3n2)cc1OC` ?
Solution: n

Exercise: Hi team, can someone confirm the assay call for `O=P1(c2ccccc2)CCCCC1` ?
Solution: n

Exercise: Hi team, can someone confirm the assay call for O=C1CC(NC2CC(=O)c3c(Br)sc(Br)c32)c2c(Br)sc(Br)c21 (configuration not stated) ?
Solution: n

Exercise: Hi team, can someone confirm the assay call for Oc1ccc(C(O)C2CCCCN2)cc1O (configuration not stated) [RIMITEROL HYDROBROMIDE] ?
Solution: n

Exercise: Hi team, can someone confirm the assay call for `N=C(N)n1nc2c(c1O)CCCC2` ?
Solution: n

Exercise: Hi team, can someone confirm the assay call for CC(=O)c1ccc(N2C(=O)C3c4[nH]c5ccccc5c4C4CCC(C(C)(C)C)CC4C3C2=O)cc1 (configuration not stated) ?
Solution: n

Exercise: Hi team, can someone confirm the assay call for Brc1ccc2c(c1)C1C(CO2)C(c2ccccc2)=NN1c1ccccc1 (configuration not stated) ?
Solution: n

Exercise: Hi team, can someone confirm the assay call for `O=c1c2c([N+](=O)[O-])cccc2nc2[nH]c3ccccc3n12` ?
Solution: n

Exercise: Hi team, can someone confirm the assay call for `O=C(O)CCCSc1ccccc1` ?
Solution: n

Exercise: Hi team, can someone confirm the assay call for CCOC(=O)C1COc2cc(-c3cc(=O)c4ccccc4o3)ccc2O1 (configuration not stated) ?
Solution: n

Exercise: Hi team, can someone confirm the assay call for `CN(C)CCN(C)CCC(=O)/C=C/c1ccccc1` ?
Solution: n

Exercise: Hi team, can someone confirm the assay call for `CCOC(=O)/C=C(/C(=O)OCC)n1ccc(=O)n(Cc2cnnn2COCCOC(C)=O)c1=O` ?
Solution: n

Exercise: Hi team, can someone confirm the assay call for `O=C1/C(=C/c2ccc3c(c2)OCCO3)CCC/C1=C\c1ccc2c(c1)OCCO2` ?
Solution: n

Exercise: Hi team, can someone confirm the assay call for `O=[N+]([O-])c1cc([As](Br)c2ccc(O)c([N+](=O)[O-])c2)ccc1O` ?
Solution: y

Exercise: Hi team, can someone confirm the assay call for `CCOC(=O)c1ccc(-n2c(SCC)nc3sc(C)c(C)c3c2=O)cc1` ?
Solution: n

Exercise: Hi team, can someone confirm the assay call for COc1ccc(NC(=O)C2C(=O)N(c3ccc(OC)cc3)C(=O)/C2=N\NC(N)=O)cc1 (configuration not stated) ?
Solution: n

Exercise: Hi team, can someone confirm the assay call for `CNC(=O)CCCN(C)C(=O)CCCCC(=O)N(C)C` ?
Solution: n

Exercise: Hi team, can someone confirm the assay call for CC(Oc1ccccc1)C(=O)NN (configuration not stated) ?
Solution: n

Exercise: Hi team, can someone confirm the assay call for COc1ccccc1N1C(=O)CSC1c1cccc(Oc2ccccc2)c1 (configuration not stated) ?
Solution: n

Exercise: Hi team, can someone confirm the assay call for `COc1ccc(OC)c2c(C)ccnc12` ?
Solution: n

Exercise: Hi team, can someone confirm the assay call for `O=C1NC(=S)N/C1=C\c1cc2c(=O)c3ccccc3sc2s1` ?
Solution: n

Exercise: Hi team, can someone confirm the assay call for `COC(=O)CCC(=O)Nc1cc(Cl)ccc1Cl` ?
Solution: n

Exercise: Hi team, can someone confirm the assay call for `CO/C(N)=C(C#N)/N=C/c1ccsc1` ?
Solution: n

Exercise: Hi team, can someone confirm the assay call for `Cc1cccc(C(C)C)c1NC(=O)C(=O)CC(=O)c1sc(Nc2ccccc2Cl)nc1C` ?
Solution: n

Exercise: Hi team, can someone confirm the assay call for `Cc1cccc(O)c(=O)c1` ?
Solution: n
